test system: α-glucosidase from Saccharomyces cerevisiae
experiment summary: α-Glucosidase inhibition assay (pNPG substrate, absorbance at 405 nm)
run conditions: in vitro; PBS pH 7.0, 37 °C; triplicate; read-out: α-Glucosidase inhibitory activity IC50
observation type: IC50 (µM)

[P] CSC(=O)c1c(C)cc2c(c1O)CC(C(C)(C)OC1OC(CO)C(O)C(O)C1O)O2 (centres unmarked) [Compound 2, Eurothiocin D]
[Q] CSC(=O)c1c(C)cc(O)c(CCC(C)(C)O)c1O [Compound 5, Eurothiocin G]
Between P and Q , which one shows the smaller IC50 number? Output the label that corresponds to your choice. P

====

# pIC50 listing for each entry below
test system: α-glucosidase from Saccharomyces cerevisiae
experiment summary: α-Glucosidase inhibition assay (pNPG substrate, absorbance at 405 nm)
Type: biochemical
run conditions: in vitro; PBS pH 7.0, 37 °C; triplicate; read-out: α-Glucosidase inhibitory activity IC50
pIC50: −log10 of the molar value.

Recorded results for 2 compounds are shown here.
{"columns": ["compound", "pIC50"],
 "data": [
  ["CSC(=O)c1c(C)cc(O)c(C/C=C(\\C)CO)c1O [Compound 4, Eurothiocin F]", 4.47],
  ["CSC(=O)c1c(C)cc(O)c(CC=C(C)C)c1O [Compound 3, Eurothiocin E]", "< 4.00"]
]}

What does the record list as pIC50 for COc1cc(O)cc(C)c1C(=O)SC [Compound 6, Eurothiocin H] ? < 4.00
